assay: glucagon-like peptide 1 release enhancers, primary assay, NCI-H716 cell line, NPC library (AID 1117341); conditions: NCI-H716 cells, at 10 µM, stronger effect = higher value
OBSERVED PROPERTY: GLP1 secretion stimulation (%)
One number for each entry, in %.

Solved cases below.
[[record]]
molecule = "O=c1[nH]c(=O)c2ccccc2o1"
observed_property = "GLP1 secretion stimulation"
observed_measurement = 0.9

[[record]]
molecule = "CC(C)(C)CC(C)(C)c1cc(Cc2cc(C(C)(C)CC(C)(C)C)cc(-n3nc4ccccc4n3)c2O)c(O)c(-n2nc3ccccc3n2)c1"
observed_property = "GLP1 secretion stimulation"
observed_measurement = 3.4


Batch request: GLP1 secretion stimulation for each of the following molecules.
1. OCCc1ccccc1
2. CC[C@@H](CO)NCCN[C@@H](CC)CO
3. CC(=O)N(CC(O)CN(C(C)=O)c1c(I)c(C(=O)NCC(O)CO)c(I)c(C(=O)NCC(O)CO)c1I)c1c(I)c(C(=O)NCC(O)CO)c(I)c(C(=O)NCC(O)CO)c1I (stereo not given)

Result block:
-0.7
-1.2
2

====

Task for the reader: assign each of the following molecules its reported viability.
experiment: ovarian cancer cell viability with rucaparib, profiling panel, oncology-focused library, rucaparib conditional (AID 1508598); details: patient-derived ovarian cancer cells, CellTiter-Glo viability, 144 h; at 0.0781 µM; OCI-C5x cells; with rucaparib 10 µM; stronger effect = lower value; 100% = cells with rucaparib alone
Activity calls are given as the source filed them.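 The calls were made as follows: active = normalized viability below 100% at a tested concentration; inactive = the rest.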

Solved cases below.
[[record]]
molecule = "COc1c(C)c2c(c(O)c1C/C=C(\\C)CCC(=O)O)C(=O)OC2"
observed_measurement = "166% (inactive)"

[[record]]
molecule = "Clc1ccc(Nc2nnc(Cc3ccncc3)c3ccccc23)cc1"
observed_measurement = "114% (inactive)"

[[record]]
molecule = "CN1CC[C@H](c2c(O)cc(O)c3c(=O)cc(-c4ccccc4Cl)oc23)[C@H](O)C1"
observed_measurement = "28.7% (active)"

[[record]]
molecule = "CNC(=O)c1cc(Oc2ccc(NC(=O)Nc3ccc(Cl)c(C(F)(F)F)c3)cc2)ccn1"
observed_measurement = "108% (inactive)"

[[record]]
molecule = "Cc1ccc(Nc2nccc(N(C)c3ccc4c(C)n(C)nc4c3)n2)cc1S(N)(=O)=O"
observed_measurement = "103% (inactive)"

[[record]]
molecule = "CCc1ccc(CCOc2ccc(CC3SC(=O)NC3=O)cc2)nc1 (configuration not stated)"
observed_measurement = "124% (inactive)"


Then this molecule:
Query block: Give viability for the following molecule: FC(F)c1nc2ccccc2n1-c1nc(N2CCOCC2)nc(N2CCOCC2)n1
Result block: 126% (inactive)

====

experiment: HTB85 osteosarcoma cell growth inhibition, synergistic combos for chromothripsis tumors, BGB or cisplatin IC20 combos (AID 1671453); details: HTB85 osteosarcoma cells, drug combinations, measured here: with BGB IC20, at 0.5 µM, stronger effect = higher value;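 note: cells exposed for 96 hours before readout; 0% = vehicle DMSO and 100% = high DMSO killing control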
Task for the reader: assign each of the following compounds its reported inhibition.
# do not omit the unit; it follows the number

[[record]]
compound = "CC1(C(=O)O)CCC2(C)CCC3(C)C(=CC(=O)C4C5(C)CCC(OC(=O)CCC(=O)O)C(C)(C)C5CCC43C)C2C1 (stereo not drawn)"
observed_measurement = "-38.9%"

[[record]]
compound = "Nc1ccc2cc3ccc(N)cc3nc2c1"
observed_measurement = "-40.6%"


Query block: Give inhibition for the following compound: CN(N=O)C(=O)NC1C(O)OC(CO)C(O)C1O (stereo not drawn)
Result block: -20.4%

====

test: phospholipid biosynthesis inhibitors in animal cells, primary screen, cell-based, LOPAC library, screen 4 (AID 1347384); details: phospholipid biosynthesis inhibition screen, at 10 µM
Activity calls are given as the source filed them. The rule behind the calls is not given here.
Valid outcomes are listed here; reply with one: active, inactive

Observe how each entry below is paired with its result.
[[record]]
compound = "C1CCc2nnnn2CC1"
class = "inactive"

[[record]]
compound = "O=C1NCN(c2ccccc2)C12CCN(CCCC(c1ccc(F)cc1)c1ccc(F)cc1)CC2"
class = "inactive"


Query block: Which outcome was entered for the compound CSC(N)=NCCC[C@H](N)C(=O)O in this test?
Result block: inactive

Query block: Which outcome was entered for the compound CCOC(=O)C1=C(O)C(=O)N(Cc2ccccc2)C1 in this test?
Result block: inactive

Query block: Which outcome was entered for the compound C=C(C)C1CC=C(C(=O)O)CC1 (configuration not stated) in this test?
Result block: inactive

Query block: Which outcome was entered for the compound NC1[C@H]2CN(c3nc4c(cc3F)c(=O)c(C(=O)O)cn4-c3ccc(F)cc3F)C[C@@H]12 (some centres not stated) in this test?
Result block: inactive

Query block: Which outcome was entered for the compound O=C(O)C1=CCNCC1 in this test?
Result block: inactive

Query block: Which outcome was entered for the compound CC(C)(C)C(=O)Oc1ccc(S(=O)(=O)Nc2ccccc2C(=O)NCC(=O)O)cc1 in this test?
Result block: inactive

Query block: Which outcome was entered for the compound OC(CN1CCC(Cc2ccc(F)cc2)CC1)c1ccc(Cl)cc1 (configuration not stated) in this test?
Result block: inactive

Query block: Which outcome was entered for the compound O=c1cc(-c2ccc(O)cc2)oc2cc(O)cc(O)c12 in this test?
Result block: inactive

Query block: Which outcome was entered for the compound C[C@]12CCC(=O)C=C1CC[C@@H]1[C@@H]2CC[C@@]2(C)[C@H]1CC[C@]2(O)C(=O)CO in this test?
Result block: inactive

====

assay: inhibition of 3D7 malaria parasite growth – strain 3D7 (AID 2306);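 note: 0% = DMSO wells and 100% = chloroquine plus artemisinin control wells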; conditions: P. falciparum 3D7 erythrocytic growth, LDH absorbance, 72 h; at 2 µM; stronger effect = higher value
OBSERVED PROPERTY: growth inhibition (%)
Answers are plain numbers, in %.

Solved cases below.
[[record]]
molecule = "O=C(NCC1CCN(Cc2ccc(F)cc2)C1)c1cc(-c2cccc(C(F)(F)F)c2)cs1 (stereo unspecified)"
observed_measurement = 93

[[record]]
molecule = "O=C(NCCCCN1CC[C@@H]2c3cccc(O)c3CC[C@H]21)c1ccc(-c2ccccc2)cc1"
observed_measurement = 81

[[record]]
molecule = "O=C(Nc1ccc(Cn2ncc(N3CCCNCC3)c(Cl)c2=O)cc1)Nc1ccc(-c2ccccc2)cc1"
observed_measurement = 93

[[record]]
molecule = "CCOC(=O)C(C)(C)Oc1ccc(C(=C2CC(C)(C)CC(C)(C)C2)c2ccc(O)cc2)cc1"
observed_measurement = 92

[[record]]
molecule = "O=C(/C=C/c1ccc(Cl)c(Cl)c1)NCCCCCN1CC[C@H](NC(=O)c2ccc3c(c2)OCO3)C1"
observed_measurement = 94


Then this molecule:
Query block: Give growth inhibition for the following molecule: O=S(=O)(NCCN1CCCC1)c1cccc(-c2ccccc2CNC2Cc3ccccc3C2)c1
Result block: 99

====

experiment: decreased DLD-1 cellular survival, CellTiter-Glo luminescent readout, NPC compound collection, primary HTS (AID 1117346); conditions: DLD-1 viability, CellTiter-Glo luminescence; at 20 µM (top of the series)
Activity calls are given as the source filed them.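 The calls were made as follows: active = compounds that lower survival of DLD-1 colon cancer cells in the luminescence readout, no cutoff given; inactive = the rest.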
Valid outcomes are listed here; reply with one: 1.0 (active), 0.0 (inactive)

[[record]]
molecule = "CC#C[C@]1(O)CC[C@H]2[C@@H]3CCC4=CC(=O)CCC4=C3[C@@H](c3ccc(N(C)C)cc3)C[C@@]21C"
class = 1.0


Query block: Which outcome was entered for the molecule C[C@@H](CN1CC(=O)NC(=O)C1)N1CC(=O)NC(=O)C1 in this test?
Result block: 0.0

Query block: Which outcome was entered for the molecule Cc1cc(O)c2c(O)c3c(O)cccc3cc2c1 in this test?
Result block: 1.0

Query block: Which outcome was entered for the molecule O=C(OOC(=O)c1ccccc1)c1ccccc1 in this test?
Result block: 0.0

Query block: Which outcome was entered for the molecule CCN1C(=O)NC(c2ccccc2)C1=O (stereo not given) in this test?
Result block: 0.0

Query block: Which outcome was entered for the molecule CN1CC(=O)N/C1=N/C(=O)Nc1cccc(Cl)c1 in this test?
Result block: 0.0

====

Task for the reader: assign each of the following molecules its reported inhibition of viability.
assay: HCT116 colon cancer cell growth inhibition, primary screen, CellTiter-Glo luminescence, NPC library (AID 1117342); settings: at 20 µM (top of the series)
One number for each entry, in %.

[[record]]
molecule = "C[C@@H](NCCCc1cccc(C(F)(F)F)c1)c1cccc2ccccc12"
unit_of_measure = "%"
observed_measurement = 102

[[record]]
molecule = "Cc1cc(OI)c(C(C)C)cc1-c1cc(C(C)C)c(OI)cc1C"
unit_of_measure = "%"
observed_measurement = -41.6

[[record]]
molecule = "O=C(O)CN(CC(=O)O)Cc1cc2c(-c3ccccc3C(=O)O)c3cc(CN(CC(=O)O)CC(=O)O)c(=O)cc-3oc2cc1O"
unit_of_measure = "%"
observed_measurement = 22.3


Batch request: inhibition of viability for each of the following molecules.
1. O=C(O)COC(=O)Cc1ccccc1Nc1c(Cl)cccc1Cl
2. O=C(O)CCn1c2c(c3ccccc31)C[C@H](NS(=O)(=O)c1ccc(F)cc1)CC2
3. O=C1OC(OC(=O)c2cccnc2Nc2cccc(C(F)(F)F)c2)c2ccccc21 (centres undefined)
4. CN(C(=O)CN(CCO)CC(=O)N(C)C(C)(C)Cc1ccccc1)C(C)(C)Cc1ccccc1
5. O=c1[nH]c(=O)c2[nH]c(=O)[nH]c2[nH]1
6. CC[C@H](C)[C@H](N)C(=O)O
7. O=C(Nc1ccc(S(=O)(=O)N2CCOCC2)cc1)c1cc(Cl)ccc1NS(=O)(=O)c1ccc(Cl)s1
8. CSc1ccc(C(=O)c2[nH]c(=O)[nH]c2C)cc1

Result block:
1: 26; 2: 5.1; 3: 10.2; 4: 59.3; 5: -5.8; 6: -13.2; 7: 124; 8: -7

Batch request: inhibition of viability for each of the following molecules.
1. CN1C(=O)CC[C@H]1c1cccnc1
2. O=C1OC2(c3ccccc31)c1cc(I)c(O)c(I)c1Oc1c2cc(I)c(O)c1I
3. NCCc1ccn[nH]1

Result block:
1: 12.8; 2: -2.6; 3: -8.9
